B1: ELF3 (parent)
chain: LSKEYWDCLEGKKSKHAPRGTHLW

variants of: B1; assay: protein stability index of a GFP-peptide fusion (GPS, HEK-293T) (PSI 1-6); higher = more stable; conditions: c terminus: a fixed tail appended;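 note: lentivirally expressed fusions sorted by FACS into six bins by GFP to DsRed ratio, PSI derived from sequencing read proportions per bin multiplied by bin number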
Consider the following variants; for each one, report its protein stability index.
Numbers only.

For every item in the list below, what is its measured protein stability index?
1. E4M
2. K13L
3. L1S
4. K3G

[2.56, 2.64, 2.67, 2.02]

For every item in the list below, what is its measured protein stability index?
1. W24P
2. A17Q

4.15
3.4

For every item in the list below, what is its measured protein stability index?
1. L1Y
2. S14G
3. A17K
4. E4S

1. 2
2. 2.77
3. 2.86
4. 2.38
